- tgt: Her2 (Homo sapiens, UniProt P04626)
- Construct: fused on or other part: P00533 (Epidermal growth factor receptor)
- Sequence (P04626 676-1255 limits assumed): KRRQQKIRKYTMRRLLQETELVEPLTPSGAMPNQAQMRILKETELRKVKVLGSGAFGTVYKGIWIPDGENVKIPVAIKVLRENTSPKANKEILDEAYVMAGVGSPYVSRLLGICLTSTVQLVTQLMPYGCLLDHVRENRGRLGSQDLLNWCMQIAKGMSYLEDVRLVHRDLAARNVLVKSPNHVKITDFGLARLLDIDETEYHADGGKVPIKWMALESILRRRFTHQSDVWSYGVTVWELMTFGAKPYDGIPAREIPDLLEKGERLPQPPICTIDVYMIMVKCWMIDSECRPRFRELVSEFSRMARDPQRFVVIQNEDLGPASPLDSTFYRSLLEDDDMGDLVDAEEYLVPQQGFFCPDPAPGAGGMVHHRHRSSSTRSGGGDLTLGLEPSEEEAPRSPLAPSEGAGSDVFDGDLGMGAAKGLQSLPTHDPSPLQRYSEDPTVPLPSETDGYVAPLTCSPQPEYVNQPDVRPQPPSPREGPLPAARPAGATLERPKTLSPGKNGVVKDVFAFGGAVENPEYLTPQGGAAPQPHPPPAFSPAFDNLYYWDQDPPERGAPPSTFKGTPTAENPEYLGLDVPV
- protocol summary: HER-2 ELISA: EGF receptor-HER2 chimeric receptor assay in whole cells (HER2 kinase)
- Assay type: cell-based
- condition notes: Table 7; NIH3T3 cells with EGFR/HER2 chimeric receptor, phosphotyrosine ELISA
pIC50: −log10 of the molar value.
pIC50 overview

chemical string	reported measurement
O=C1Cc2c(CCOc3cncc(Cl)c3)cccc2N1	< 4.00
Cc1[nH]c(/C=C2\C(=O)Nc3cccc(CCOc4ccc(C(C)C)cc4)c32)c(C)c1CCC(=O)O	< 4.00
CC(C)c1ccccc1OCCc1cccc2c1CC(=O)N2	4.74
CC(C)c1cccc(OCCc2cccc3c2CC(=O)N3)c1	4.78

Please report the measured pIC50 for Cc1cccc(/C=C2\C(=O)Nc3cccc(CCO)c32)n1 tested on Her2 (Homo sapiens, UniProt P04626).
4.97

Please report the measured pIC50 for O=C1Cc2c(CCOC(=O)Nc3ccccc3-c3ccccc3)cccc2N1 tested on Her2 (Homo sapiens, UniProt P04626).
< 4.00

Please report the measured pIC50 for CC(C)c1ccc(OCCc2cccc3c2CC(=O)N3)cc1 tested on Her2 (Homo sapiens, UniProt P04626).
< 4.00

Please report the measured pIC50 for COc1ccc(/C=C2\C(=O)Nc3cccc(CCO)c32)cc1-c1cccs1 tested on Her2 (Homo sapiens, UniProt P04626).
5.07

Please report the measured pIC50 for Cc1[nH]c(/C=C2\C(=O)Nc3cccc(CCOc4cccc(C(C)C)c4)c32)c(C)c1CCCN(C)C tested on Her2 (Homo sapiens, UniProt P04626).
< 4.00

Please report the measured pIC50 for O=C1Cc2c(CCOC(=S)Nc3ccccc3)cccc2N1 tested on Her2 (Homo sapiens, UniProt P04626).
< 4.00

Please report the measured pIC50 for CCOCCc1cccc2c1CC(=O)N2 tested on Her2 (Homo sapiens, UniProt P04626).
< 4.00

Please report the measured pIC50 for O=C1Nc2cccc(CCO)c2/C1=C\c1ccc(Br)cc1 tested on Her2 (Homo sapiens, UniProt P04626).
4.97

Please report the measured pIC50 for COc1ccc(OCCc2cccc3c2CC(=O)N3)cc1 tested on Her2 (Homo sapiens, UniProt P04626).
< 4.00

---

- tgt: EGFR (Homo sapiens, UniProt P00533)
- Sequence (P00533 25-1210): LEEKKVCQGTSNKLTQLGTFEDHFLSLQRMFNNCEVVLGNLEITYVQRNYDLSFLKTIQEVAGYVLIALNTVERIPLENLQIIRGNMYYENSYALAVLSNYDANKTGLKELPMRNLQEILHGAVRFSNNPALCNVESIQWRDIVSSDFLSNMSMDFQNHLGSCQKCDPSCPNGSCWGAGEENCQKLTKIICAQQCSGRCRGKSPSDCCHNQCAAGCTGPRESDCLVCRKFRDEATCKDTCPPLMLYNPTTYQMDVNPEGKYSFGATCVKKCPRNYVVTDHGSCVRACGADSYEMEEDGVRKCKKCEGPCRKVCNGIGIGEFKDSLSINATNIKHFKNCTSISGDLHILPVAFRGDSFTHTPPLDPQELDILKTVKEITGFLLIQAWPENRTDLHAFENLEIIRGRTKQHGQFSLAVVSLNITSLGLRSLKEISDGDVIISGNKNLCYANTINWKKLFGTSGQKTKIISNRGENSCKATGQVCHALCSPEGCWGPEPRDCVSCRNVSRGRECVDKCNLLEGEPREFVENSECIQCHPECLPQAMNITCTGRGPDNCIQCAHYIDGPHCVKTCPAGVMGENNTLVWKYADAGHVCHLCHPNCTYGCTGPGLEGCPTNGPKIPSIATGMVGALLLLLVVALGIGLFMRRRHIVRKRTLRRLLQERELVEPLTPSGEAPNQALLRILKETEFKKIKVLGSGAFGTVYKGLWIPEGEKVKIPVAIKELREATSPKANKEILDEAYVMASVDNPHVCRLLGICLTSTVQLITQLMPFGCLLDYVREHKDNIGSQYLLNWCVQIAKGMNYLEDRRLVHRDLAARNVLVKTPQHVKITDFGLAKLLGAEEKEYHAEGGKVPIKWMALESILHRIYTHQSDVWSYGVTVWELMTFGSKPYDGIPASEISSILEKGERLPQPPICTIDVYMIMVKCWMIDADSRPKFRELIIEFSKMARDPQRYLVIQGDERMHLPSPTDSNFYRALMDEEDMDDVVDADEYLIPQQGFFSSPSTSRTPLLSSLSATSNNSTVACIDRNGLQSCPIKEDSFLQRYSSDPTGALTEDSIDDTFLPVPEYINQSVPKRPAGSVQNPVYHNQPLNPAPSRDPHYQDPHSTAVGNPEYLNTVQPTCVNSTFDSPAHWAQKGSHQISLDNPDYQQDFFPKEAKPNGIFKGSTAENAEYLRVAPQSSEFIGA
- protocol summary: EGF-induced BrdU incorporation assay
- Format: cell-based
- Set-up: expressed in transfected cells; host or cells: 3T3
- condition notes: Table 7; 3T3 cells expressing human EGF-R, EGF 2 nM; read-out: BrdU DNA syn. EGFr IC50
measured property: IC50 (µM)

Solved cases (2 shown):
chemical string	IC50 (µM)
CC(C)c1cccc(OCCc2cccc3c2CC(=O)N3)c1	32.5
COc1ccc(/C=C2\C(=O)Nc3cccc(CCO)c32)cc1-c1cccs1	31.3

[a] O=C1Cc2c(CCOc3cccc(-c4ccccc4)c3)cccc2N1
[b] Cc1cccc(/C=C2\C(=O)Nc3cccc(CCO)c32)n1
Could you tell me which of a and b has the lower IC50 reading? Mark your answer with the label of the selected entry.
b
(b: 11.1 µM, a: 29 µM)

[1] O=C1Nc2cccc(CCO)c2/C1=C/c1ccccn1
[2] CC(C)c1ccccc1OCCc1cccc2c1CC(=O)N2
Which record would sort first by descending IC50, 1 or 2 ? Mark your answer with the label of the selected entry.
2

[P] Cc1[nH]c(/C=C2\C(=O)Nc3cccc(CCOc4cccc(C(C)C)c4)c32)c(C)c1CCCN(C)C
[Q] O=C1Nc2cccc(CCO)c2/C1=C\c1ccc(Br)cc1
Could you tell me which of P and Q has the lower IC50 reading? Mark your answer with the label of the selected entry.
Q
(Q: 4.7 µM, P: 28.7 µM)
